The origin of these recorded values is PubChem BioAssay (NCATS).

- measurement.protocol: Quantitative High-Throughput drug screen in 47 multiple myeloma cell lines against the NCATS MIPE library collection: KMS28PE_JCRB cell viability assay (AID 1918983); further: nearly all actives have a fitted effect of over 35% in size
- recorded.conditions: KMS28PE multiple myeloma viability, CellTiter-Glo ATP, 48 h; series mostly up to 45.8 µM
Results filed as inconclusive are left out. Activity calls are given as the source filed them. The call rests on the fitted dose curve; in most records, active means well fitted cell-killing curve with a large enough effect; inconclusive means small, poorly fitted or top-dose-only effect, or effect the other way; inactive means no such curve, though single readings can be large or run the other way.
Write down the outcome that applies. Available outcomes: y (active), n (inactive)

Observe how each entry below is paired with its result.
chem.smiles	group.label
COc1cc([C@@H]2c3cc4c(cc3[C@@H](O[C@@H]3O[C@@H]5CO[C@@H](c6cccs6)O[C@@H]5[C@H](O)[C@@H]3O)[C@H]3COC(=O)[C@H]23)OCO4)cc(OC)c1O	y
CCNC(=O)c1cc2c(-c3cc(OCCN4CCCC4)c(Cl)cc3Cl)nc(N)nc2s1	y
CC1(C)CC(O)CC(C)(C)N1[O]	n
C=CC(=O)N1CCc2ccc(-n3c(=O)ccc4cnc5ccc(-c6cnn(C)c6)cc5c43)cc21	y

Please state the recorded outcome for this molecule: C[C@]12CC[C@@H]3c4ccc(O)cc4CC[C@H]3[C@H]1CC[C@H]2O
y

====

- Tested on: Tov-21-G
- measurement.protocol: Primary qHTS to identify gynecologic anti-cancer compounds using libraries of approved drugs and bioactive compounds (AID 1345084); further: nearly all actives have a fitted effect of over 55% in size
- recorded.conditions: Gynecologic cancer cell panel viability, ATPlite luminescence, 48 h; series mostly up to 57.5 µM
Results filed as inconclusive are left out. Calls of active or inactive are those of the source. Calls come from the whole dose curve; as a rule, active = well fitted cell-killing curve with a large enough effect; inconclusive = small, poorly fitted or top-dose-only effect, or effect the other way; inactive = flat fitted curve, though single readings scatter.
Write down the outcome that applies. Available outcomes: active, inactive

compound	group.label
CCOC(=O)[C@@H](N)Cc1ccc(-c2cc(O[C@H](c3ccc(Cl)cc3-n3ccc(C)n3)C(F)(F)F)nc(N)n2)cc1	inactive
O=C(Nc1ccc(Oc2ccnc3[nH]ccc23)c(F)c1)c1cccn(-c2ccc(F)cc2)c1=O	inactive
Oc1cc(-c2nc(-c3ccccc3)[nH]c2-c2ccncc2)ccc1Cl	active
Cc1ccccc1C(=O)Nc1ccc(C(=O)N2CCCC(O)c3cc(Cl)ccc32)c(C)c1 (stereo not drawn)	inactive
O=C(O)c1ccc(Nc2ncc3c(n2)-c2ccc(Cl)cc2C(c2c(F)cccc2F)=NC3)cc1	inactive
CCCCC(=O)O[C@]1(C(=O)CO)[C@@H](C)C[C@H]2[C@@H]3CCC4=CC(=O)C=C[C@]4(C)[C@@]3(F)[C@@H](O)C[C@@]21C	inactive

Please state the recorded outcome for this compound: CC(C)c1cc(C(C)C)c(CC(=O)NS(=O)(=O)Oc2c(C(C)C)cccc2C(C)C)c(C(C)C)c1
inactive

Please state the recorded outcome for this compound: CN(C)CC(=O)N1CCC(c2ccc(NC(=O)c3ncc(C#N)[nH]3)c(C3=CCCCC3)c2)CC1
inactive

====

- measurement.protocol: qHTS of pediatric cancer cell lines to identify multiple opportunities for drug repurposing: Primary screen for BT-37 cells (AID 1347094)
- recorded.conditions: BT-37 viability, CellTiter-Glo luminescence, 48 h; series mostly up to 57.3 µM
Records with an inconclusive call do not appear. Calls of active or inactive are those of the source. Calls follow the shape of the dose curve; as a rule, active = well fitted cell-killing curve with a large enough effect; inconclusive = small, poorly fitted or top-dose-only effect; inactive = flat fitted curve, though single readings scatter.
Write down the outcome that applies. Available outcomes: active, inactive

compound	group.label
Cn1cnc(=N)c2[nH]cnc21	active
CN(N=O)C(=O)N[C@H]1C(O)OC(CO)[C@@H](O)[C@H]1O (stereo not given in full)	inactive
N#Cc1cc(NC(=O)Nc2nnc(-c3ccncc3)s2)ccc1-c1cn[nH]c1	inactive
COc1cc2c(Nc3ccc(Cl)c(Cl)c3F)ncnc2cc1OCC1C[C@@H]2CN(C)C[C@H]2C1	active
Cc1cnc(Nc2ccc(CN3CCOCC3)cc2)nc1Nc1cccc(S(=O)(=O)NC(C)(C)C)c1	active

Please state the recorded outcome for this compound: OCCNC1CCCc2c1[nH]c1ccc(-c3ccccc3)cc21 (stereo not given)
active

Please state the recorded outcome for this compound: Cc1cnc(Nc2ccc(N3CCN(C)CC3)cc2)nc1Nc1cccc(S(=O)(=O)NC(C)(C)C)c1
active

Please state the recorded outcome for this compound: CN(C)c1ccc(C(=O)NCCCCCCC(=O)NO)cc1
active

Please state the recorded outcome for this compound: COc1ccc(S(=O)(=O)Nc2cc(-c3c(O)ccc4ccccc34)c(O)c3ccccc23)cc1
active

Please state the recorded outcome for this compound: O=C(O)CCCCCC(=O)NN=C1CCCC1
inactive
